- TESTED_TARGET: T1, recombinant human TIGIT (Sino Biological) (human, UniProt Q495A1 22-138)
- T1 construct: Bought protein; NP_776160.2; also called human TIGIT antigen; hTIGIT
- T1 sequence: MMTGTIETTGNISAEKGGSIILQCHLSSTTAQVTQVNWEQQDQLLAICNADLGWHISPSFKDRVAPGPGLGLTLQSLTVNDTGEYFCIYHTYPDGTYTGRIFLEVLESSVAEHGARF
- ASSAY_TEXT: SPR (Biacore T200), single cycle kinetics, IgG from supernatant captured on anti-human chip, TIGIT as analyte, 1:1 fit;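 also: measured at 25 °C in HBS-P+ with 1% BSA, four ascending TIGIT concentrations, 210 s association per step, one final 900 s dissociation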
Quick reference for koff among some binders

| BINDER | koff [s⁻¹] |
| --- | --- |
| anti-TIGIT 7A6 VH3/Vk5 humanized antibody (human IgG1, kappa) (antibody, V domains shown, also called VH3Vκ5; 7A6 VH3/Vk5-IgG1) VH: QVQLQESGPGLVKPSQTLSLTCTVTGYSITSDYAWNWIRQPPGKGLEWMGYISYSGSARYNPSLKSRVTISRDTSKNQFSLKLSSVTAEDTATYYCARKGYPAYFAYWGQGTLVTVSS VL: DIQMTQSPSSLSASVGDRVSITCKASQDVSTAVAWYQQKPGQAPRLLIYSASYRYTGVPDRFSGSGSGTDFTLTISSLQPEDFATYYCQHHYSTPYTFGQGTKLEIKR | 0.00161 |
| 7A6 VH1/Vκ5 humanized antibody (human IgG1, kappa) (antibody, V domains shown, Tested as IgG in supernatant of transiently transfected HEK293 EBNA cells) VH: DVQLQESGPGLVKPSQTLSLTCTVTGYSITSDYAWNWIRQPPGKGLEWMGYISYSGSARYNPSLKSRITISRDTSMNQFSLKLNSVTAEDTATYYCARKGYPAYFAYWGQGTLVTVSS VL: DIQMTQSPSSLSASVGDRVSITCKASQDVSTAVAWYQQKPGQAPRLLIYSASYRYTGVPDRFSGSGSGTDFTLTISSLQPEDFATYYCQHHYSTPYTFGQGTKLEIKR | 0.00129 |
| 7A6 VH2/Vκ5 humanized antibody (human IgG1, kappa) (antibody, V domains shown, Tested as IgG in supernatant of transiently transfected HEK293 EBNA cells) VH: DVQLQESGPGLVKPSQTLSLTCTVTGYSITSDYAWNWIRQPPGKGLEWMGYISYSGSARYNPSLKSRITISRDTSKNQFSLKLSSVTAEDTATYYCARKGYPAYFAYWGQGTLVTVSS VL: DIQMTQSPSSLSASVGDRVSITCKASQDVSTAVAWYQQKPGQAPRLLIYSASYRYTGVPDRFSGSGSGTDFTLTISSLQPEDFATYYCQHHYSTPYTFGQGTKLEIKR | 0.0013 |
| 7A6 VH2/Vκ4 humanized antibody (human IgG1, kappa) (antibody, V domains shown, Tested as IgG in supernatant of transiently transfected HEK293 EBNA cells) VH: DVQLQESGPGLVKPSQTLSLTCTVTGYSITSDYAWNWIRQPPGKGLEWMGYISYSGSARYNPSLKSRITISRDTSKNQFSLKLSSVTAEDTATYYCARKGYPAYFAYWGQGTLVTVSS VL: DIQMTQSPSSLSASVGDRVTITCRASQDVSTAVAWYQQKPGQAPRLLIYSASYRYTGVPDRFSGSGSGTDFTLTISSLQAEDVAVYYCQHHYSTPYTFGQGTKLEIKR | 0.00181 |
| 7A6 VH4/Vκ4 humanized antibody (human IgG1, kappa) (antibody, V domains shown, also called 7A6 VH4/Vk4; 7A6VH4/Vk4) VH: QVQLQESGPGLVKPSQTLSLTCTVTGYSITSDYAWNWIRQPPGKGLEWMGYISYSGSARYNPSLKSRVTISRDTSKNQFSLKLSSVTAADTAVYYCARKGYPAYFAYWGQGTLVTVSS VL: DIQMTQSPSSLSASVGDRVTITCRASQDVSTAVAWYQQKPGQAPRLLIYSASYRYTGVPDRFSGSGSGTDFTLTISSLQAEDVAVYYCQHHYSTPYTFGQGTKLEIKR | 0.00192 |
| 7A6 VH4/Vκ2 humanized antibody (human IgG1, kappa) (antibody, V domains shown, Tested as IgG in supernatant of transiently transfected HEK293 EBNA cells) VH: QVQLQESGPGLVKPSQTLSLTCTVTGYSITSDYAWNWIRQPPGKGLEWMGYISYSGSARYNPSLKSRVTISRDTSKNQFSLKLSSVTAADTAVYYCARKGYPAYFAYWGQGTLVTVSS VL: DIVMTQSPSSLSASVGDRVSITCKASQDVSTAVAWYQQKPGQAPRLLIYSASYRYTGVPDRFTGSGSGTDFTLTISSLQAEDVAVYYCQHHYSTPYTFGQGTKLEIKR | 0.00185 |
| 7A6 VH2/Vκ3 humanized antibody (human IgG1, kappa) (antibody, V domains shown, Tested as IgG in supernatant of transiently transfected HEK293 EBNA cells) VH: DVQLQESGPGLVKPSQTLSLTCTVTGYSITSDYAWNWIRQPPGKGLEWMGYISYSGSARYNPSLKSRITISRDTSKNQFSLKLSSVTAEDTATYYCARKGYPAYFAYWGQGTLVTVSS VL: DIQMTQSPSSLSASVGDRVSITCKASQDVSTAVAWYQQKPGQAPRLLIYSASYRYTGVPDRFSGSGSGTDFTLTISSLQAEDVAVYYCQHHYSTPYTFGQGTKLEIKR | 0.00134 |
| 7A6 VH4/Vκ1 humanized antibody (human IgG1, kappa) (antibody, V domains shown, Tested as IgG in supernatant of transiently transfected HEK293 EBNA cells) VH: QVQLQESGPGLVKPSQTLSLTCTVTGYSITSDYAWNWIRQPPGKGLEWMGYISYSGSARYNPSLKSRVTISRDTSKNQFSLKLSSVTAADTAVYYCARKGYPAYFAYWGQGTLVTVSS VL: DIVMTQSHSFLSASVGDRVSITCKASQDVSTAVAWYQQKPGQAPELLIYSASYRYTGVPDRFTGSGSGTDFTLTISSLQAEDVAVYYCQHHYSTPYTFGQGTKLEMKR | 0.00107 |
| 7A6 VH1/Vκ2 humanized antibody (human IgG1, kappa) (antibody, V domains shown, Tested as IgG in supernatant of transiently transfected HEK293 EBNA cells) VH: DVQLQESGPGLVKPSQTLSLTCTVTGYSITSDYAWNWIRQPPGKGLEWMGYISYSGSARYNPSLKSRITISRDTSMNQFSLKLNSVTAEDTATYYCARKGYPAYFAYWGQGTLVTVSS VL: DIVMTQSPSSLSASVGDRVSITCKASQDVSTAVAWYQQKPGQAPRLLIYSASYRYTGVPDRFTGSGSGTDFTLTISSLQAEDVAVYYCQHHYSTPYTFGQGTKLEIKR | 0.00146 |
| 7A6 VH3/Vκ2 humanized antibody (human IgG1, kappa) (antibody, V domains shown, Tested as IgG in supernatant of transiently transfected HEK293 EBNA cells) VH: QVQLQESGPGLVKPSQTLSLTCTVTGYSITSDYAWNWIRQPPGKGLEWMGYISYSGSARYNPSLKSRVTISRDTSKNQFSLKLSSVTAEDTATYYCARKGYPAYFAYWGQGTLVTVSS VL: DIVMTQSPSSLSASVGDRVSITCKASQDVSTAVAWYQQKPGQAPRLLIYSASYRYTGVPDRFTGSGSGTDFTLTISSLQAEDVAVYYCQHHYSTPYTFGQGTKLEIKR | 0.00173 |

Attribution: patent US20250064909A1
